All figures here come from PubChem BioAssay AID330.

- Tested on: P388 leukemia ip, CD2F1 mice, survival T/C
- assay_overview: NCI In Vivo Anticancer Drug Screen. Data for tumor model P388 Leukemia (intraperitoneal) in CD2F1 (CDF1) mice
- assay_context: endpoint: median survival time; dose: 200.0 mg/kg/injection; schedule: Q01DX009 (ip); vehicle: distilled water + Tween-80; higher = longer survival
Toxic doses and inconclusive results are not listed.
A collection of molecules and their measured T/C

[NH-]CC(=O)O.[NH-]CC(=O)O.[Pt+2]
98 % of control

Q. State the recorded T/C for this entry: `CCOc1cc2cc(CCO)c(C)cc2cn1`
A. 95 % of control

Q. Query: T/C; subject: `O=C(Oc1ccc[nH]c1=O)c1cccc(C(F)(F)F)c1`
A. 90 % of control

Q. Field request: T/C | item: `CCOC(=O)Cc1cc2cc(OCC)ncc2cc1C`
A. 109 % of control

Q. Report T/C for `NS(=O)(=O)c1cc2c(cc1Cl)NC(CCC(=O)O)=NS2(=O)=O` please.
A. 102 % of control

====

Recorded T/C values for a group of compounds are listed next.
- System: P388 leukemia ip, CD2F1 mice, survival T/C
- assay_overview: NCI In Vivo Anticancer Drug Screen. Data for tumor model P388 Leukemia (intraperitoneal) in CD2F1 (CDF1) mice
- assay_context: endpoint: median survival time; dose: 6.25 mg/kg/injection; schedule: Q01DX005 (ip); vehicle: saline; higher = longer survival
Toxic doses and inconclusive results are not listed.

Take a look at these entries with their results.
NCCCNCCCCNC(=O)C(O)NC(=O)CC(O)CCCCN=C(N)N (stereo not given)
152 % of control
C1=C[N-]c2c3c(ccc2=C1)=CC=C[N-]3.C1=C[N-]c2c3c(ccc2=C1)=CC=C[N-]3.C1C[N-]C2C(C1)CCC1CC[N-]CC12.[Ni]
96 % of control
C/C=N/NCCC#N
100 % of control
CCCC1CCCC[N+]1(C)[B-](F)(F)F (stereo not given)
99 % of control

Continue with the compound presented below.
Q. T/C lookup needed for `CN(C)c1ccc2nc3ccc(N)cc3[n+](-c3ccccc3)c2c1` , thanks.
A. 106 % of control

====

- Tested on: P388 leukemia ip, CD2F1 mice, survival T/C
- assay_overview: NCI In Vivo Anticancer Drug Screen. Data for tumor model P388 Leukemia (intraperitoneal) in CD2F1 (CDF1) mice
- assay_context: endpoint: median survival time; dose: 12.5 mg/kg/injection; schedule: Q01DX005 (ip); vehicle: saline; higher = longer survival
Toxic doses and inconclusive results are not listed.
measurement_name: T/C

COc1cc(NCC(O)CN2C(C)CCCC2C)c2ncccc2c1 (stereo unspecified)
100 % of control
CCC(O)C1(OC)C=CC(OC)O1 (stereo unspecified)
101 % of control
C1CN2CCN3CCCN(CCN(C1)C2)C3
102 % of control
CN(C)CCC=C1c2ccccc2C=Cc2ccccc21
103 % of control
CC(=NC(C)(C)C)N1CCCC1
102 % of control

Q. // query T/C value for entry CC(O)CC(O)CC1CCCO1 (stereo unspecified)
A. 98 % of control

====

- System: P388 leukemia ip, CD2F1 mice, survival T/C
- assay_overview: NCI In Vivo Anticancer Drug Screen. Data for tumor model P388 Leukemia (intraperitoneal) in CD2F1 (CDF1) mice
- assay_context: endpoint: median survival time; dose: 50.0 mg/kg/injection; schedule: Q01DX009 (ip); vehicle: Klucel (hydroxypropylcellulose) (HPC); higher = longer survival
Inconclusive results and toxic doses are left out.
measurement_name: T/C

Q. Reported T/C, compound `COc1c(Cl)c(=O)oc2ccc(Cl)cc12` : ____
A. 104 % of control

Q. Find the recorded T/C belonging to O=[N+]([O-])c1cccc(NC(c2ccc(N(CCCl)CCCl)cc2)P(=O)(Oc2ccccc2)Oc2ccccc2)c1 (stereo unspecified) and report it.
A. 95 % of control

Q. // returns reported T/C for input `CCOc1ccc(NC(=O)OCc2c3ccccc3cc3ccccc23)cc1`
A. 100 % of control

Q. Look up T/C for this compound: `COC(=O)/C=C1\C(=O)OC(C)(C)C1(C)C`
A. 111 % of control

Q. So what's the measured T/C for this one? `CN1C(=O)Cn2c(n[nH]c(=O)c2=O)-c2cc(Cl)ccc21`
A. 95 % of control

Q. Looking for the measured T/C of CCC1(CC(=O)O)OCCc2c1[nH]c1c(C)c(F)ccc21 (stereo unspecified) , can you help?
A. 95 % of control
